As shown below, each of these compounds has a reported residual activity value.
EXPERIMENTAL_TARGET: Calcium/calmodulin-dependent protein kinase type II subunit gamma (Homo sapiens) (UniProt Q13555)
Sequence (Q13555 whole entry): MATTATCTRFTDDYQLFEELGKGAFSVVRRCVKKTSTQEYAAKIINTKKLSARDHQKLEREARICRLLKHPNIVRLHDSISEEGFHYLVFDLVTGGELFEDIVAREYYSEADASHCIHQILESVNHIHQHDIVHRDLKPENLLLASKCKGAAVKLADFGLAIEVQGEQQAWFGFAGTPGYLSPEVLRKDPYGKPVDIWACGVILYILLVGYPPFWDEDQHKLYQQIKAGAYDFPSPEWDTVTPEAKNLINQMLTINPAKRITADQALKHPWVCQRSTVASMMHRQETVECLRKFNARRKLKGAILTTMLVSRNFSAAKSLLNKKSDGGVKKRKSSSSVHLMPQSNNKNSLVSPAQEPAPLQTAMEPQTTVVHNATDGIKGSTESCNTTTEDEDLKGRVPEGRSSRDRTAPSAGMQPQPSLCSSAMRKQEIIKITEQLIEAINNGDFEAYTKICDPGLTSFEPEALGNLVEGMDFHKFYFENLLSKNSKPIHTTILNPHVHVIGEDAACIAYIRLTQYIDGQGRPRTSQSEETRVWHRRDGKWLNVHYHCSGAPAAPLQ
MEASUREMENT_PARAMETERS: at 10 µM
MEASURED_METRIC: residual activity

* Nc1ncnc2c1c(-c1ccc(Oc3ccccc3)cc1)cn2C1CCCC1 | 72%
* Nc1nc(Nc2ccc(S(N)(=O)=O)cc2)nn1C(=O)c1c(F)cccc1F | 19%
* CC(C)c1nn(-c2c(Cl)cccc2Cl)c2nc(Cc3ccc(OCCO)cc3)[nH]c(=O)c12 | 60%
* COc1cc2nccc(Oc3ccc(NC(=O)Nc4cc(C)on4)c(Cl)c3)c2cc1OC | 70%
* O=C1NC(=O)c2c1c1c3ccccc3[nH]c1n1cncc21 | 7%
* Nc1ncnc2[nH]nc(Nc3ccc(F)cc3)c12 | 30%
* Nc1n[nH]c2nc3ccccc3nc12 | 28%
* O=C(c1ccccc1)c1ccc(N2CCOCC2)cc1O | 78%
* Nc1ncnc2c1cnn2-c1ccccc1 | 51%
* CCCC(=O)Oc1ccc2[nH]c(C(=O)c3cc4ccccc4[nH]3)cc2c1 | 102%
* CCCCc1c(-c2ccc(OC)cc2)[nH]c2nccnc12 | 26%

Values compiled from ChEMBL document CHEMBL2218924.
